# tested_on: T1, Recombinant Human TNF-α/TNFSF1A (human, UniProt P01375 77-233)
# T1 construct: Bought reagent (R&D Systems 210-TA); also called hTNF-α; huTNF-α
# protocol: SPR (Biacore), antibody captured, TNF-α in solution
experimental_readout: kon

Example entries begin here.
AB241 (antibody, V domains shown, also called hMAK195VH.1 / hMAK195VL.1a) VH: EVQLQESGPGLVKPSETLSLTCTVSGGSISDYGVNWIRQPPGKGLEWIGMIWGDGSTDYDSTLKSRVTISVDTSKNQFSLKLSSVTAADTAVYYCAREWHHGPVAYWGQGTLVTVSS VL: DIQMTQSPSSLSASVGDRVTITCKASQAVSSAVAWYQQKPGKSPKLLIYWASTRHTGVPSRFSGSGSGTDFTLTISSLQPEDFATYYCQQHYSTPFTFGQGTKLEIK    2.27e+06 M⁻¹ s⁻¹
AB253 (antibody, V domains shown, also called hMAK195VH.2 / hMAK195VL.1a) VH: EVQLVESGGGLVQPGGSLRLSCAASGFTFSDYGVNWVRQAPGKGLEWVSMIWGDGSTDYDSTLKSRFTISRDNSKNTLYLQMNSLRAEDTAVYYCAREWHHGPVAYWGQGTLVTVSS VL: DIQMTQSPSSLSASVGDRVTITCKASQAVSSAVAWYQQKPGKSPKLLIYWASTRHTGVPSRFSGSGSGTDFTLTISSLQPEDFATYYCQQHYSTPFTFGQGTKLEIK    3.02e+06 M⁻¹ s⁻¹
AB242 (antibody, V domains shown, also called hMAK195VH.1 / hMAK195VL.2) VH: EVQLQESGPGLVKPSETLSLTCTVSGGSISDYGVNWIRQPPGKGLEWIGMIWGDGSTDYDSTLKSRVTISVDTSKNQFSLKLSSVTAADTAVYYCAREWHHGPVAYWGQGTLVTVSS VL: EIVMTQSPATLSLSPGERATLSCKASQAVSSAVAWYQQKPGQAPRLLIYWASTRHTGIPARFSGSGSGTDFTLTISSLQPEDFAVYYCQQHYSTPFTFGQGTKLEIK    1.79e+06 M⁻¹ s⁻¹
AB262 (antibody, V domains shown, also called hMAK195VH.2b / hMAK195VL.2) VH: EVQLVESGGGLVQPGGSLRLSCAASGFTLSDYGVNWVRQAPGKGLEWVSMIWGDGSTDYDSTLKSRFTISKDNSKNTLYLQMNSLRAEDTAVYYCAREWHHGPVAYWGQGTLVTVSS VL: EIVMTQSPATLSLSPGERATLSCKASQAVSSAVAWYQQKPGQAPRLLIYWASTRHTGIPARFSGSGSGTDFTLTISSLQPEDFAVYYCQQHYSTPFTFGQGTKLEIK    2.14e+06 M⁻¹ s⁻¹

Which value of kon has been reported for AB260 (antibody, V domains shown, also called hMAK195VH.2b / hMAK195VL.1) VH: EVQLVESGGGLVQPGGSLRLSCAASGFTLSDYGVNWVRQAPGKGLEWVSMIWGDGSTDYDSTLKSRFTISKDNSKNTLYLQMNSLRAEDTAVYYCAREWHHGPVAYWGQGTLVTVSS VL: DIQMTQSPSSLSASVGDRVTITCKASQAVSSAVAWYQQKPGKAPKLLIYWASTRHTGVPSRFSGSGSGTDFTLTISSLQPEDFATYYCQQHYSTPFTFGQGTKLEIK in the records?
2.27e+06 M⁻¹ s⁻¹
